tested on: iCell cardiomyocytes (human iPSC-derived cardiomyocytes); experiment: High-content imaging of cytotoxicity and mitochondrial integrity in iPSC-CMs; format: cell-based; details: Homo sapiens, Cardiomyocyte, 24 h, 10.00 µM; 0.00 µM = 100.00; read-out: cm.tc.24hrs
Listed below: viability at 10 µM values for each entry.
Express the result in % but write the number alone.

// worked examples, viability at 10 µM included
1. Oc1ccc(-c2ccc(Cl)cc2)cc1 : 102
2. Clc1ccc(-c2ccccc2)cc1 : 90.8
3. Clc1cccc(-c2cccc(Cl)c2)c1 : 103

Okay, next one:
Give its viability at 10 µM value. Item: `Oc1ccccc1-c1ccc(Cl)cc1`
103

====

system: iCell cardiomyocytes (human iPSC-derived cardiomyocytes); assay: High-content imaging of cytotoxicity and mitochondrial integrity in iPSC-CMs; format: cell-based; details: Homo sapiens, iPSC-CM, 24 h, iPSC-CM; read-out: cm.mito.24hrs POD
minimal effective concentration below 30 µM gives NO; minimal effective concentration at or above it gives YES.

1) COc1ccc(-c2cccc(Cl)c2)cc1Cl : YES
2) Oc1ccc(-c2ccc(Cl)cc2)cc1 : YES
3) Oc1cc(Cl)cc(-c2cccc(Cl)c2)c1 : NO
4) Oc1cccc(-c2ccc(Cl)cc2)c1 : NO
5) O=C1C=CC(=O)C(c2ccc(Cl)cc2)=C1 : NO

hey, is minimal effective concentration for this one >= 30 µM? `COc1ccc(-c2ccc(Cl)cc2)cc1`
YES

# bool: minimal effective concentration of `Oc1ccc(O)c(-c2ccc(Cl)cc2)c1` >= 30 µM
NO

====

Reported activity at 1 µM values are given for each entry in this list.
Tested on: iCell cardiomyocytes (human iPSC-derived cardiomyocytes)
Assay: Intracellular Ca2+ flux / beating parameters in iCell cardiomyocytes (FLIPR tetra), 90 min or 24 h
Type: cell-based
Conditions: Homo sapiens, Cardiomyocyte, 1.5 h, 1.00 µM; 90min; 0.00 µM = 100.00; read-out: cm.spacing.cv.90min
Protocol: Details on cardiomyocyte cell culture are described in detail elsewhere ([Grimm et al. 2015b]; [Sirenko et al. 2013a]). […] Live cell counts for each cell suspension were determined by trypan blue staining and cells were further diluted to provide final cell densities of 2×10^5 viable cells/ml. […] Responses of iCell®-cardiomyocytes to drugs and chemicals were evaluated using intracellular Ca^2+ flux measurements ([Grimm et al. 2015b]; [Sirenko et al. 2013b]). […]
Could you give me the number in %? Just the number is fine.

Consider the reported activity at 1 µM for these compounds:
1) Clc1ccc(Cl)c(-c2c(Cl)ccc(Cl)c2Cl)c1 [PCB95] : 92
2) Clc1ccc(Cl)c(-c2cc(Cl)ccc2Cl)c1 [PCB52] : 91
3) Oc1cc(Cl)c(-c2cc(Cl)ccc2Cl)cc1Cl [4-OH PCB52] : 108

Record Clc1cc(Cl)c(-c2cc(Cl)c(Cl)cc2Cl)cc1Cl [PCB153] : what is its activity at 1 µM with iCell cardiomyocytes (human iPSC-derived cardiomyocytes)?
108

====

Parameter activity at 1 µM: see the listing below.
system: HUVECs; test: High-content imaging cytotoxicity in HUVECs, 24 h; format: cell-based, human; conditions: Homo sapiens, HUVEC, 24 h, HUVECs, 24 hr, 1.00 µM; 0.00 µM = 100.00; read-out: huvec.nma.24hr
Counter-ions that a name gives are not always drawn.
Quote the value and follow it with the unit of measurement.

What does the record list as activity at 1 µM for O=S(=O)(O)Oc1ccc(-c2cccc(Cl)c2)cc1Cl [4-yl PCB 11 sulfate] ?
97%

Query: activity at 1 µM; subject: `Clc1ccc(Cl)c(-c2cc(Cl)ccc2Cl)c1`
100%

GET /values?readout=activity at 1 µM&item= `O=C1C=CC(=O)C(c2ccc(Cl)cc2)=C1`
81.8%

Record request: activity at 1 µM value, item O=S(=O)(O)Oc1cc(Cl)c(-c2cc(Cl)ccc2Cl)cc1Cl [4-yl PCB 52 sulfate]
99.1%

Entry under review: `Oc1ccc(-c2ccc(Cl)cc2)cc1` . Reported activity at 1 µM?
102%
